# targetOfAssay: T1, UM-Pif1 (unmodified Pif1) (Saccharomyces cerevisiae, UniProt P07271 1-859)
# T1 sequence: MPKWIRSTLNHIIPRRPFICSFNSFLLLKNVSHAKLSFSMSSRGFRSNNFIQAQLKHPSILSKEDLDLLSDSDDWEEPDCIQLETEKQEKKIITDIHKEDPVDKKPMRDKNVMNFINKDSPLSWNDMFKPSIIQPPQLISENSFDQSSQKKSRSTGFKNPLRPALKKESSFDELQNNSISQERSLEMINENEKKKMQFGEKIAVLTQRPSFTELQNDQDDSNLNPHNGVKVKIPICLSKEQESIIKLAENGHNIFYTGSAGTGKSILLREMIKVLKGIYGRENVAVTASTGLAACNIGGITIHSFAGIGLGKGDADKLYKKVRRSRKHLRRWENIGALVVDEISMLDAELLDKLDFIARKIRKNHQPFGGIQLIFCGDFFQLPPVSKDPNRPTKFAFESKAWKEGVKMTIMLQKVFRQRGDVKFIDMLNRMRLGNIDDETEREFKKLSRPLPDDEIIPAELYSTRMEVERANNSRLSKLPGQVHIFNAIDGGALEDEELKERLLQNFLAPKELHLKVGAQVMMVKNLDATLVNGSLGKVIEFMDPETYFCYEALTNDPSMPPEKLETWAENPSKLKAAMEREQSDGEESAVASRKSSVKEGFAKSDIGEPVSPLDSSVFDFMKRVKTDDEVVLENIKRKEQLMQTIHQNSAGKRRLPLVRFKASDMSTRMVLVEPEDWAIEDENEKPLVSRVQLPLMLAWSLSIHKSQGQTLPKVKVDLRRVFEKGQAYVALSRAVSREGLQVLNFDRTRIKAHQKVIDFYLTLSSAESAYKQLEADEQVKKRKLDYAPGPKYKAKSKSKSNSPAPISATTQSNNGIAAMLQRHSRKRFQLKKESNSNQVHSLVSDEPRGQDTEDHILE
# test: BLI

# binder, unitsText, Kd
data = [
    ("TTTTTTTTTTTTTTTTTTTTTTTTTGTGTCACTCACATAGCGTTC (ssDNA) [T1 45-nt ssDNA]", "nM", 19.1),
]
